# Test system: HEK-293T
# Test: Multiplex assay against HEK293T
# Type: toxicity, cell-based
# Condition details: human, 48 h, 10 µM, compound concentration 10 uM, replicate 2
# Population Tubulin-Different-Phenotype (%) listing for each entry below
// units = %; emit number, no label

The following compounds have reported results that may help.
N[C@@]1(C(=O)O)CO[C@H]2[C@H](C(=O)O)[C@H]21 [LY-379268]: 9
CN1CCN(c2nc3cc(C(F)(F)F)ccc3n3cccc23)CC1.O=C(O)/C=C\C(=O)O.O=C(O)/C=C\C(=O)O: 56
c1cc(OCCCN2CCCCC2)ccc1CN1CCCCC1 [JNJ-5207852]: 30
Cc1ccc(C(C)(O)c2nc3ccccc3s2)c(C)c1 (configuration not stated): 13
CC[C@H]1OC(=O)[C@H](C)[C@@H](O[C@H]2C[C@@](C)(OC)[C@@H](O)[C@H](C)O2)[C@H](C)[C@@H](O[C@@H]2O[C@H](C)C[C@H](N(C)C)[C@H]2O)[C@@]2(C)CC(C)=C(O2)[C@H](C)[C@@H](O)[C@]1(C)O: 73

Give Population Tubulin-Different-Phenotype (%) for this entry on HEK-293T: COc1cc(C(=O)N(CCCc2ccccc2)Cc2ccc(CC(=O)O)cc2)cc(OC)c1C
34

Give Population Tubulin-Different-Phenotype (%) for this entry on HEK-293T: CCCC(CCC)C(=O)O [VALPROIC ACID]
6

Give Population Tubulin-Different-Phenotype (%) for this entry on HEK-293T: CN1CCN2c3ncccc3Cc3ccccc3C2C1 (configuration not stated) [MIRTAZAPINE]
12

Give Population Tubulin-Different-Phenotype (%) for this entry on HEK-293T: CN(C)CCCc1cc(C(=O)Nc2ccc(-c3ccncc3)cc2)ccc1O.Cl.Cl
20

Give Population Tubulin-Different-Phenotype (%) for this entry on HEK-293T: CCOc1c2c(c(OCC)c3ncccc13)CN(c1ccc(CS(=O)(=O)NC(=O)Cc3ccccc3OC)cc1C)C2=O
11

Give Population Tubulin-Different-Phenotype (%) for this entry on HEK-293T: N#Cc1c(N)nc(SCc2csc(-c3ccc(Cl)cc3)n2)c(C#N)c1-c1ccc(OCCO)cc1 [CAPADENOSON]
64

Give Population Tubulin-Different-Phenotype (%) for this entry on HEK-293T: Cc1ccccc1C(=O)Nc1ccc(C(=O)N2CCCC(N(C)C)c3ccccc32)cc1.Cl (configuration not stated)
41

Give Population Tubulin-Different-Phenotype (%) for this entry on HEK-293T: CCCN1CCC[C@@H]2Cc3n[nH]cc3C[C@H]21.Cl [QUINPIROLE HYDROCHLORIDE]
13

Give Population Tubulin-Different-Phenotype (%) for this entry on HEK-293T: Cl.Clc1ccc2nsnc2c1NC1=NCCN1 [TIZANIDINE HYDROCHLORIDE]
19

Give Population Tubulin-Different-Phenotype (%) for this entry on HEK-293T: COc1cc(NC(=O)CCN2CCC(OC(=O)Nc3ccccc3-c3ccccc3)CC2)c(Cl)cc1CNC[C@H](O)c1ccc(O)c2[nH]c(=O)ccc12 [BATEFENTEROL]
74

Give Population Tubulin-Different-Phenotype (%) for this entry on HEK-293T: CN(C)c1ccnc2sc3c(=O)n(N4CCCCCC4)cnc3c12
45

Give Population Tubulin-Different-Phenotype (%) for this entry on HEK-293T: CC(C)(C)c1ccc(S(=O)(=O)Nc2ccc(Cl)cc2C(=O)c2cc[n+]([O-])cc2)cc1 [VERCIRNON]
15

---

# Total Cell Count listing for each entry below
# Tested on: Fibroblast
# Test: Multiplex assay against human fibroblast
# Type: toxicity, cell-based
# Condition details: 48 h, 1 µM, compound concentration 1 uM, replicate 1
Output: the number by itself.

COc1ccc2c(c1)C(C(=O)N(Cc1ccc(N(C)C)cc1)c1ccc(C(C)C)cc1)CCC2.Cl (configuration not stated): 180
c1cc(OCCCN2CCCCC2)ccc1CN1CCCCC1: 184
C[C@H]1[C@H]2CC[C@H]3[C@@H]4CC=C5C[C@@H](N(C)C)CC[C@]5(C)[C@H]4CC[C@]23CN1C: 178
COc1c(C)cc(NC(=O)c2nn(Cc3ccc(F)cc3)c3c2CN(C(=O)c2ccc[nH]2)C[C@]3(C)C(N)=O)cc1C: 99
O=C(NCCO)c1cccc(-c2cc(Nc3ccc(OC(F)(F)F)cc3)ncn2)c1: 130

Please list Total Cell Count recorded for the compound Cc1ccc(F)cc1C(=O)Nc1ccc(C(=O)N2Cc3cccn3Cc3ccccc32)c(Cl)c1
181

Please list Total Cell Count recorded for the compound O=C(O)c1cc2ccccc2c(Cc2c(O)c(C(=O)O)cc3ccccc23)c1O
155

Please list Total Cell Count recorded for the compound CC[C@H]1OC(=O)[C@H](C)[C@@H](O[C@H]2C[C@@](C)(OC)[C@@H](O)[C@H](C)O2)[C@H](C)[C@@H](O[C@@H]2O[C@H](C)C[C@H](N(C)C)[C@H]2O)[C@@]2(C)CC(C)=C(O2)[C@H](C)[C@@H](O)[C@]1(C)O
168

Please list Total Cell Count recorded for the compound COc1cc(C(=O)N(CCCc2ccccc2)Cc2ccc(CC(=O)O)cc2)cc(OC)c1C
168

Please list Total Cell Count recorded for the compound CSc1ccccc1N1CCN(CCCCCC(=O)NC2CCCc3ccccc32)CC1.Cl (configuration not stated)
132

Please list Total Cell Count recorded for the compound Cc1nc2ccc(Oc3ccc(F)cc3)cc2c(=O)n1C[C@H]1CCCN(C(C)C)C1.Cl
184

Please list Total Cell Count recorded for the compound CN1CCN2c3ncccc3Cc3ccccc3C2C1 (configuration not stated)
213

Please list Total Cell Count recorded for the compound Cl.Clc1ccc2nsnc2c1NC1=NCCN1 [TIZANIDINE HYDROCHLORIDE]
167

Please list Total Cell Count recorded for the compound CC(C)(C)c1ccc(S(=O)(=O)Nc2ccc(Cl)cc2C(=O)c2cc[n+]([O-])cc2)cc1
151

Please list Total Cell Count recorded for the compound Cc1ccc(/C(=C\CN2CCCC2)c2ccccn2)cc1
135

Please list Total Cell Count recorded for the compound O=S(=O)(c1ccccc1)c1cnc2c(N3CCNCC3)cccc2c1 [INTEPIRDINE]
213

Please list Total Cell Count recorded for the compound N#Cc1c(N)nc(SCc2csc(-c3ccc(Cl)cc3)n2)c(C#N)c1-c1ccc(OCCO)cc1
147

---

# System: Fibroblast
# Test: Multiplex assay against human fibroblast
# Assay type: toxicity, cell-based
# Condition details: 24 h, 1 µM, compound concentration 1 uM, replicate 2
Assay metric: Population Tubulin-Different-Phenotype (%)
// units = %; emit number, no label

The following molecules have reported results that may help.
CC(C)(C)c1ccc(S(=O)(=O)Nc2ccc(Cl)cc2C(=O)c2cc[n+]([O-])cc2)cc1 [VERCIRNON]: 40
O=C(NCC(=O)N1CC[C@H](N[C@H]2CC[C@@](O)(c3ccc(-c4ncccn4)cn3)CC2)C1)c1cccc(C(F)(F)F)c1 [PF-4136309]: 52

Here is another molecule to look at.
Give Population Tubulin-Different-Phenotype (%) for this entry on Fibroblast: Cc1ccc(F)cc1C(=O)Nc1ccc(C(=O)N2Cc3cccn3Cc3ccccc32)c(Cl)c1 [LIXIVAPTAN]
52

---

# Total Cell Count listing for each entry below
# Tested on: HEK-293T
# Test: Multiplex assay against HEK293T
# Format: toxicity, cell-based
# Condition details: human, 24 h, 1 µM, compound concentration 1 uM, replicate 1

The following molecules have reported results that may help.
c1cc(OCCCN2CCCCC2)ccc1CN1CCCCC1: 710
C[C@H](NC(=O)c1c(C(F)F)nn(C)c1Oc1cccc(C(F)(F)F)c1)c1ccc(C(=O)O)cc1: 527
COc1cc(NC(=O)CCN2CCC(OC(=O)Nc3ccccc3-c3ccccc3)CC2)c(Cl)cc1CNC[C@H](O)c1ccc(O)c2[nH]c(=O)ccc12: 527
Cc1ccc(/C(=C\CN2CCCC2)c2ccccn2)cc1: 574
O=C(NCCO)c1cccc(-c2cc(Nc3ccc(OC(F)(F)F)cc3)ncn2)c1: 538

Please list Total Cell Count recorded for the molecule CCCn1c(=O)c2[nH]c(C3CCCC3)nc2n(CCC)c1=O
610

Please list Total Cell Count recorded for the molecule CC(C)(C)c1ccc(S(=O)(=O)Nc2ccc(Cl)cc2C(=O)c2cc[n+]([O-])cc2)cc1
522

Please list Total Cell Count recorded for the molecule CN1CCN2c3ncccc3Cc3ccccc3C2C1 (configuration not stated)
601

---

# Tested on: Fibroblast
# Test: Multiplex assay against human fibroblast
# Assay type: toxicity, cell-based
# Condition details: 48 h, 10 µM, compound concentration 10 uM, replicate 2
Assay metric: Population Apoptotic (%)
// units = %; emit number, no label

CC[C@H]1OC(=O)[C@H](C)[C@@H](O[C@H]2C[C@@](C)(OC)[C@@H](O)[C@H](C)O2)[C@H](C)[C@@H](O[C@@H]2O[C@H](C)C[C@H](N(C)C)[C@H]2O)[C@@]2(C)CC(C)=C(O2)[C@H](C)[C@@H](O)[C@]1(C)O: 58
C[C@H]1[C@H]2CC[C@H]3[C@@H]4CC=C5C[C@@H](N(C)C)CC[C@]5(C)[C@H]4CC[C@]23CN1C: 27
Oc1c(CN2CCN(c3ccccn3)CC2)cc(Cl)c2cccnc12: 78
COc1cc(NC(=O)CCN2CCC(OC(=O)Nc3ccccc3-c3ccccc3)CC2)c(Cl)cc1CNC[C@H](O)c1ccc(O)c2[nH]c(=O)ccc12: 88
CCNC1(C(N)=O)CCN(c2ncnc3c2nc(-c2ccccc2Cl)n3-c2ccc(Cl)cc2)CC1: 61

Please list Population Apoptotic (%) recorded for the molecule CN(C)c1ccnc2sc3c(=O)n(N4CCCCCC4)cnc3c12
50

Please list Population Apoptotic (%) recorded for the molecule COc1cc(C(=O)N(CCCc2ccccc2)Cc2ccc(CC(=O)O)cc2)cc(OC)c1C
58

Please list Population Apoptotic (%) recorded for the molecule CNC[C@H](O)c1ccc(O)c(O)c1 [EPINEPHRINE]
37

Please list Population Apoptotic (%) recorded for the molecule O=C(NCCO)c1cccc(-c2cc(Nc3ccc(OC(F)(F)F)cc3)ncn2)c1
76

Please list Population Apoptotic (%) recorded for the molecule CN1CCN2c3ncccc3Cc3ccccc3C2C1 (configuration not stated)
33

Please list Population Apoptotic (%) recorded for the molecule N#Cc1c(N)nc(SCc2csc(-c3ccc(Cl)cc3)n2)c(C#N)c1-c1ccc(OCCO)cc1
36

Where do these numbers come from? They come from ChEMBL document CHEMBL5058577.
